# EXPERIMENTAL TARGET: Tyrosinase (Agaricus bisporus, UniProt O42713)
# Sequence (O42713 whole entry): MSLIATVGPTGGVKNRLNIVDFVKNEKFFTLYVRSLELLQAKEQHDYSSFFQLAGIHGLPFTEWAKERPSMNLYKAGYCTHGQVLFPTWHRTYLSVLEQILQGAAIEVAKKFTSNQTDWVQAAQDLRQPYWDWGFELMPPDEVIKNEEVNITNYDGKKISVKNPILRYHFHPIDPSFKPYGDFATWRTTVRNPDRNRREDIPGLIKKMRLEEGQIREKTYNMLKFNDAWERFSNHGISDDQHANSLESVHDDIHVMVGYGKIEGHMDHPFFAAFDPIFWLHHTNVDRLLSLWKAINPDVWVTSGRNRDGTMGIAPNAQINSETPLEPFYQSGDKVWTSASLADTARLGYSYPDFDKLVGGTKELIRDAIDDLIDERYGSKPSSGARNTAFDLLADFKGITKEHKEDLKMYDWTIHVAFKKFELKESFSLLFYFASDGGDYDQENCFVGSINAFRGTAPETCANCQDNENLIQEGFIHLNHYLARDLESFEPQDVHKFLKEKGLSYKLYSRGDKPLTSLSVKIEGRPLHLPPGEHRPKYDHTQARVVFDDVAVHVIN
# MEASUREMENT PROTOCOL: Inhibition of mushroom tyrosinase using TBC as substrate by spectrophotometric method
OBSERVED PROPERTY: pIC50
Recall that pIC50 is obtained by taking minus log10 of the concentration measured in molar.

Report pIC50 from Tyrosinase (Agaricus bisporus, UniProt O42713) testing of OC[C@H]1O[C@@H](OCCCCCCCCCCCCCCc2ccc(O)cc2O)[C@H](O)[C@@H](O)[C@@H]1O
6.41
